target system: recombinant H1-HA (D18-I530), A/California/06/2009 (H1N1)pdm09 (Influenza A virus A/California/06/2009 …, UniProt C3W5S1, strain)
test description: SPR
particulars: both partners purified
The threshold is inclusive: koff of exactly 0.0001 s⁻¹ counts as Fulfilled; values below receive Not fulfilled.

For orientation, consider the following solved cases.
R1a-E6 (VHH, source: E. coli WK6 periplasm, purified (Talon IMAC, Superdex 75 SEC)) VHH: QVQLVESGGGLVQPGGSLRLSCAASGFTLGAYAIAWFRQAPGKEREGVSCISPSDSFTEYGDSVKGRFTVSRDNAKNTVYLQMNSLQPEDTAVYYCAADPVCTAGWYRPSRFDLWGQGTQVTVSS: Fulfilled
R1a-E5 (VHH, source: E. coli WK6 periplasm, purified (Talon IMAC, Superdex 75 SEC)) VHH: QLQLVESGGGLVQPGGSLRLSCTASGFSLDNYAIGWFRRAPGEEREGVSFITSTSAVTKYADSVKGRFTISRDNAKNTVYLQMTSLKPEDTAVYYCAGTRWVPTMKADEYNYWGQGTQVTVSS: Not fulfilled
R2a-B9 (VHH, source: E. coli WK6 periplasm, purified (Talon IMAC, Superdex 75 SEC)) VHH: QVQLVESGGGLVQPGGSLRLSCAASGSAFSINAMGWYRQAPGEEREFVAAITAGGNTYYADSAKARFTISRDNAKNMLYLQMNSLKPEDTAMYYCAATKAFGIATITADYELWGQGTQVTVSS: Not fulfilled
R2a-E8 (VHH, source: E. coli WK6 periplasm, purified (Talon IMAC, Superdex 75 SEC)) VHH: QLQLVESGGGLVQPGGSLRLSCTASGDIFVMYMIDWYRQAPGKQRELVASIDGRGTPMYADSVKGRFTISRDNAKNTVYLQMNSLKPEDTAVYSCHAKSPLVDNEYWGQGTQVTVSS: Fulfilled

Ask: Reported koff at or above 0.0001 s⁻¹? R2a-F9 (VHH, source: E. coli WK6 periplasm, purified (Talon IMAC, Superdex 75 SEC)) VHH: QVQLVESGGGLVQPGGSLRLSCSASGSISSIVTMGWYRQAPGKERELVAVIGNYGNTNYADSVKGRFTVSRDNAKNTVYLQMNSLNVEDTAMYVCKFSSTVAPHEYWGQGTQVTVSS
Reply: Fulfilled
